- Tested on: T47D cells
- test.protocol: Cell viability (cell kill) assay
- Type: cell-based
- particulars: T47D; Table 19
Reported values of % Kill for individual entries
Reply numerically in %, unit not repeated.

molecule: H1H6958N2-mc-VC-PAB-MMAE (conjugate) VH: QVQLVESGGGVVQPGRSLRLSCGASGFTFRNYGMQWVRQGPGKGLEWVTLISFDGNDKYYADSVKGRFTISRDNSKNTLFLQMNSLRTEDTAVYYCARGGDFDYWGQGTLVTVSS VL: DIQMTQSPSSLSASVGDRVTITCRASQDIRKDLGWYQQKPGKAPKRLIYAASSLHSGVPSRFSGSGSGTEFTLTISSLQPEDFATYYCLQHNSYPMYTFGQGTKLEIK
result.value: 90
//
molecule: H1H6782P-mc-VC-PAB-MMD (conjugate) VH: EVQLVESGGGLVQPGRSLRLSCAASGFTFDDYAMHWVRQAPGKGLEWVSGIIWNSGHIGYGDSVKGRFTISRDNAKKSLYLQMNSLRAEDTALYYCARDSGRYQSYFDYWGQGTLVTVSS VL: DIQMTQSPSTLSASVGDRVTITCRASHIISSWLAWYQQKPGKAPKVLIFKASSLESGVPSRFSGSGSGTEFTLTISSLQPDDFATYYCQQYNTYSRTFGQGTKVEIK
result.value: 90
//
molecule: H1H6958N2-DM1: anti-PRLR antibody H1H6958N2 conjugated to DM1 through an SMCC linker (conjugate) VH: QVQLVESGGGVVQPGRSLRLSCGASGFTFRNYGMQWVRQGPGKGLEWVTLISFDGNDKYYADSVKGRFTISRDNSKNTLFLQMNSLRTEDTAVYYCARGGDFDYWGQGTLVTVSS VL: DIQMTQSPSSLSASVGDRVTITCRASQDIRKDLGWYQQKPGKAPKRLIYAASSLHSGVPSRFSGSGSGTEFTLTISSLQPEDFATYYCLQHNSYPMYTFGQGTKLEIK
result.value: 100

Turning now to a further molecule:
In: Form field: reported % Kill of H1H6958N2-SPDB-DM4 (conjugate) VH: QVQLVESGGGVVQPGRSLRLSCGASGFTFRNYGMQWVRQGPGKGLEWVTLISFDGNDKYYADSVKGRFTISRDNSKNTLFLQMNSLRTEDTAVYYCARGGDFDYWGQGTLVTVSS VL: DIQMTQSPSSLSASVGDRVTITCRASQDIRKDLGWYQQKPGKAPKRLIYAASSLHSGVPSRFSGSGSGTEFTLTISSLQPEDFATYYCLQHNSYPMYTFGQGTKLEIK
Out: 100

Cited source for all entries: patent US9688764B2
